For each of the compounds below, state its inhibition.
- protocolNotes: TROY pathway blockers in reporter cells – Q293 LMP1-TROYcd cells, NF-kB luciferase, uHTS, primary screen (AID 1347056)
- measurementContext: 4 h, at 10 µM, active compounds read high
Screen size: about 360,000 compounds; about 3,600 (1%) were called active. For the sample, actives were picked, then their nearest neighbours and some compounds at random.
Answers are plain numbers, in %.

// worked examples, inhibition included
Please indicate inhibition recorded for CC(Nc1nc(N2CCCC2)nc2ccccc12)c1ccccc1 (stereo unspecified)
5.36

Please indicate inhibition recorded for COc1ccccc1C(=O)NC(=S)Nc1ccc(N2CCOCC2)cc1
30.2

Please indicate inhibition recorded for CCOC(=O)[C@]12CCC=C1N(CCC1=CCCCC1)C(=O)[C@H](CC(=O)NCc1ccc(C)o1)C2
-3.05

Please indicate inhibition recorded for CCNS(=O)(=O)c1ccc(CCC(=O)N2CCN(c3cc(Cl)ccc3C)CC2)cc1
26.1

Please indicate inhibition recorded for CC1CCCCC1NC(=O)Cn1cnc2c1c(=O)n(C)c(=O)n2C (stereo unspecified)
-7

Record inhibition per entry; entries follow.
1. CCSc1nsc(NC(=O)Nc2cccc(C(C)=O)c2)n1
2. CSc1ccccc1C(=O)Nc1cccc(C(C)=O)c1

1. 67.1
2. 8.76

----------
- protocolNotes: TROY pathway blockers in reporter cells – Q293 LMP1-TROYcd cells, NF-kB luciferase, uHTS, primary screen (AID 1347056)
- measurementContext: 4 h, at 10 µM, active compounds read high
In all, about 360,000 compounds went through this assay and about 3,600 (1%) were called active. The sample as a whole holds a higher share of actives than the screen did.
For each of the molecules below, state its inhibition.

Please indicate inhibition recorded for CC1CCc2c(sc(NC(=O)c3ccc(Cn4cc(Br)cn4)o3)c2C(N)=O)C1 (configuration not stated)
-4.02% (inactive)

Please indicate inhibition recorded for C/C(CC(=O)N1CCN(C=O)CC1)=N\NC(=O)c1ccc(Br)cc1
-8.44% (inactive)

Please indicate inhibition recorded for CC(=NC1CCN(Cc2ccccc2)CC1)c1c(O)[nH]c(=O)[nH]c1=O
26.3% (inactive)

Please indicate inhibition recorded for O=c1c(/C=N/O)coc2ccc(Cl)cc12
12.5% (inactive)

Please indicate inhibition recorded for COc1ccc(C2=NOC(C(=O)NCc3ccco3)C2)cc1OC (configuration not stated)
14.5% (inactive)

Record inhibition per entry; entries follow.
1. CC(C)(C)OC(=O)NCCCCCC(=O)N/N=C/c1coc2ccccc2c1=O
2. Clc1cccc(N=C2NN=C(c3ccc4c(c3)OCCO4)CS2)c1

["-22.3% (inactive)", "66.2% (active)"]

----------
- protocolNotes: TROY pathway blockers in reporter cells – Q293 LMP1-TROYcd cells, NF-kB luciferase, uHTS, primary screen (AID 1347056)
- measurementContext: 4 h, at 10 µM
About 3,600 (1%) of roughly 360,000 compounds were called active.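 The calls were made as follows: active = compounds whose plate-normalised and pattern-corrected inhibition of the luciferase reporter signal at the single screening dose is 50% or more; inactive = the rest.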 The entries come from a sample that favours actives as a whole.
Permitted responses: active, inactive

// return assay outcome for CCS(=O)(=O)N1Cc2ccccc2CC1C(=O)Nc1nc2ccc(F)cc2s1 (stereo unspecified)
inactive

// return assay outcome for CC[C@H]1CN2CCc3cc(OC)c(OC)cc3[C@@H]2C[C@@H]1C[C@H]1NCCc2cc(OC)c(OC)cc21
active

// return assay outcome for Cc1cc(N)n(-c2ccc(S(=O)(=O)N3CCCC3)cc2[N+](=O)[O-])n1
inactive

// return assay outcome for CC(C)CCN1CCC(C)(NC(=O)c2ccccc2)C1=O (stereo unspecified)
inactive

// return assay outcome for CN(C)/C=C/C(=O)c1cnc2sccn2c1=O
inactive

// return assay outcome for CC1(C)C/C(=C(/C#N)C(N)=O)CCO1
inactive

// return assay outcome for CN(Cc1ccc(F)cc1)C(=O)CN1C(=O)c2ccccc2S1(=O)=O
inactive

// return assay outcome for O=C(CN1C(=O)c2ccccc2S1(=O)=O)N1CCc2ccccc21
active

// return assay outcome for N/C(=N\OC(=O)c1ccc([N+](=O)[O-])cc1)c1ccccn1
inactive

// return assay outcome for Cc1ccc(CS(=O)Cc2ccc(C(=O)N3CCOCC3)o2)cc1 (stereo unspecified)
inactive

Note: attention shifts to another entry.
// return assay outcome for CC12CCC(=O)C=C1CCC1C2C(O)CC2(C)C1CCC2(O)C(O)CO (stereo unspecified)
inactive
